Assay: NCI Yeast Anticancer Drug Screen. Data for the wt2 strain (AID 169);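 also: 0% = growth of vehicle-treated yeast cultures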
Conditions: S. cerevisiae wt2 strain growth inhibition; at 3.7 µM; hits give high values
This is part of a sample that, as a whole, favours compounds with a hit. Of some 79,000 tested, about 15% had one in any assay.
reported endpoint: growth inhibition (%)
// return numeric value only (unit: %, not printed)

Worked examples follow.
CN(C)C=NC1CCC(C(C)(C)C)CC1 (stereo unspecified)
4
O=C1c2ccccc2C(=O)c2cc(CCl)ccc21
7
Cc1cc2cc3cc(C)c(N)cc3nc2cc1N
-12
CNC(=O)OCc1c(COC(=O)NC)c(-c2ccc(Cl)cc2)n2c1CCC2
-11
COC(=O)/C=C(/C(=O)OC)C(Cl)(Cl)Cl
8

Now look at this entry.
Asked: Consider the compound shown here: O=c1ssc(=Nc2ccccc2)n1-c1ccccc1 What is its recorded growth inhibition?
Given back: -15

====

Assay: NCI Yeast Anticancer Drug Screen. Data for the mlh1 strain (AID 171);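 also: 0% = growth of vehicle-treated control cultures of the same strain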
Conditions: S. cerevisiae mlh1 strain growth inhibition; at 100.0 µM; hits give high values
The panel holds about 79,000 compounds, 15% with a hit somewhere; the sample as a whole holds those more often.
Response key: met means growth inhibition >= 80%; not met means growth inhibition < 80%.

Example cases with answers are listed next.
N#CC1=C(N)N(/N=C/c2ccccc2)C(c2ccccc2)C1(C#N)C#N (stereo not given)
met
C=C1CCC(O)C/C1=C/C=C1\CCCC2(C)C1CCC2C(C)CCCC(C)C (stereo not given)
not met
O=C(CSC(=S)N1CCCCC1)Nc1nc2c(s1)CCCC2
met
CCn1c(O)c(C=Nc2ccccc2)s/c1=N/Nc1nc(-c2ccccc2)cs1
not met

Proceed to the following item.
Asked: Is it the case that CCOC(=O)C(C(=O)OCC)=P(c1ccccc1)(c1ccccc1)c1ccccc1 has growth inhibition reaching or exceeding 80%?
Given back: met

====

Experiment: NCI Yeast Anticancer Drug Screen. Data for the mlh1 strain (AID 171);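 also: 0% = growth of vehicle-treated control cultures of the same strain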
Details: S. cerevisiae mlh1 strain growth inhibition; at 3.7 µM; hits give high values
Compounds without any hit were thinned out: in the full panel of roughly 79,000, 15% have a hit.
reported endpoint: growth inhibition (%)
// return numeric value only (unit: %, not printed)

Worked examples follow.
CC(=O)Nc1ccc2c(c1)Cc1cc(N=C3C=CC(=O)O3)ccc1-2
25
OCc1ccccc1Cc1ccccc1
-1
C#CCN(Cc1ccc2nc(N)[nH]c(=O)c2c1)c1ccc(C(=O)NC(CCC(=O)O)C(=O)O)cc1 (stereo not drawn)
14
NCCNCCNc1ccc(NCCNCCN)c2c1C(=O)c1c(O)ccc(O)c1C2=O
-2
O=C(CC(C(=O)O)N1CCOCC1)c1ccccc1 (stereo not drawn)
-3

Now look at this entry.
Asked: Consider the compound shown here: CS(=O)(=O)OCCN(CCOS(C)(=O)=O)c1ccc(C=Nc2ccc(-c3csc(COc4ccccc4)n3)cc2)cc1 What is its recorded growth inhibition?
Given back: -17

====

Experiment: NCI Yeast Anticancer Drug Screen. Data for the mgt1 strain (AID 153)
Details: S. cerevisiae mgt1 mutant growth inhibition; at 100.0 µM; hits give high values
The panel holds about 79,000 compounds, 15% with a hit somewhere; the sample as a whole holds those more often.
Response key: Yes means growth inhibition >= 20%; No means growth inhibition < 20%.

CCCCCCOC(=O)NCCOC(=O)Nc1ccccc1
No
CN(CCN(C)Cc1ccccc1)Cc1ccccc1
Yes
O=C(/C=C\c1cccc(C(F)(F)F)c1)c1ccccc1
No
c1ccc2c(OCC3CO3)cccc2c1 (stereo unspecified)
Yes
CCCC/C([O-])=C1/C(=O)N(c2ccccc2)N=C1C.CCCC/C([O-])=C1/C(=O)N(c2ccccc2)N=C1C.[Cu+2]
No

Proceed to the following item.
Asked: Is it the case that CCc1c[n+]([O-])c(C)cc1[N+](=O)[O-] has growth inhibition reaching or exceeding 20%?
Given back: Yes
